Attribution: ChEMBL document CHEMBL1142530

So I've got a bunch of molecules here, and I need their Activity values.
# Species on record: Mus musculus
# ASSAY EXPLANATION: Inhibition of verapamil-induced residual ATPase activity in lipid activated mouse P-glycoprotein mdr3 cys-less mutant assessed as ATP hydrolysis per ug of protein; also: test concentration or dose not given here
One number for each entry, in nmol/min.

In the examples that follow, each entry is paired with its recorded Activity.
CHEM SMILES: CN(C)c1ccc(-c2cc(-c3ccc(N4CCOCC4)cc3)[se+]c(-c3ccc(N4CCOCC4)cc3)c2)cc1
Activity [nmol/min]: 0.4
//
CHEM SMILES: CN(C)c1ccc(-c2cc(-c3ccc(N)cc3)[s+]c(-c3ccc(N(C)C)cc3)c2)cc1.F[P-](F)(F)(F)(F)F
Activity [nmol/min]: 1.6
//
CHEM SMILES: Cc1cc(C)c(-c2cc(-c3ccc(N(C)C)cc3)[te+]c(-c3ccc(N(C)C)cc3)c2)c(C)c1.F[P-](F)(F)(F)(F)F
Activity [nmol/min]: 0.4
//
CHEM SMILES: Cc1cc(-c2ccc(N(C)C)cc2)[s+]c(-c2ccc(N(C)C)cc2)c1
Activity [nmol/min]: 0.9
//
CHEM SMILES: Cc1cc(-c2ccc(N(C)C)cc2)cc(-c2ccc(N(C)C)cc2)[s+]1.[I-]
Activity [nmol/min]: 0.5

For each of the molecules below, state Activity.
1. Nc1ccc(-c2cc(-c3ccc(N4CCOCC4)cc3)cc(-c3ccc(N4CCOCC4)cc3)[s+]2)cc1
2. CN(C)c1ccc(-c2cc(-c3ccccc3)[s+]c(-c3ccc(N)cc3)c2)cc1.F[P-](F)(F)(F)(F)F
3. c1ccc(-c2cc(-c3ccc(N4CCOCC4)cc3)[s+]c(-c3ccc(N4CCOCC4)cc3)c2)cc1

Response given:
1. 0.7
2. 0.9
3. 1
